Where do the numbers come from? From paper PMC7395068.

Test system: hLiMTs
assay.overview: Combined HCI (HCS) and cellular ATP 3D assay in hLiMTs
assay.setup: hLiMTs; all endpoints; cut-off <100x Avg Cmaxu

compound	hLiMTs <100x Avg Cmaxu All
CS(=O)(=O)CCNCc1ccc(-c2ccc3ncnc(Nc4ccc(OCc5cccc(F)c5)c(Cl)c4)c3c2)o1 [lapatinib]	+ve (<100x Avg Cmaxu)
CCc1ccc(CCOc2ccc(CC3SC(=O)NC3=O)cc2)nc1 (stereo not drawn) [pioglitazone, reference compound]	-ve
[H]/N=C(/N)N[C@H]1[C@H](O)[C@@H](O)[C@H](O[C@@H]2O[C@@H](C)[C@](O)(C=O)[C@H]2O[C@@H]2O[C@@H](CO)[C@H](O)[C@@H](O)[C@@H]2NC)[C@@H](N/C(N)=N\[H])[C@@H]1O [streptomycin, reference compound]	+ve (<100x Avg Cmaxu)

----------
Test system: HepaRG spheroids
assay.overview: Combined HCI (HCS) and cellular ATP 3D assay in HepaRG spheroids
assay.setup: HepaRG; HCS endpoints; cut-off <25x Avg Cmax
outcome.measure: HepaRG <25x Avg Cmax HCS

Some solved entries appear below for comparison.
compound	outcome.measure	measurement
CCN(CC)CC#CCOC(=O)C(O)(c1ccccc1)C1CCCCC1 (centres unmarked)	HepaRG <25x Avg Cmax HCS	-ve
CC(COc1ccccc1)N(CCCl)Cc1ccccc1 (centres unmarked)	HepaRG <25x Avg Cmax HCS	-ve
CC(=O)N1CCN(c2ccc(OCC3COC(Cn4ccnc4)(c4ccc(Cl)cc4Cl)O3)cc2)CC1 (centres unmarked) [ketoconazole, reference compound]	HepaRG <25x Avg Cmax HCS	+ve
CCc1nn(CCCN2CCN(c3cccc(Cl)c3)CC2)c(=O)n1CCOc1ccccc1 [nefazodone, reference compound]	HepaRG <25x Avg Cmax HCS	+ve
C#CCN(C)Cc1ccccc1	HepaRG <25x Avg Cmax HCS	-ve
O=C1CC2(CCCC2)CC(=O)N1CCCCN1CCN(c2ncccn2)CC1 [buspirone, reference compound]	HepaRG <25x Avg Cmax HCS	-ve
C1CCC(C(CC2CCCCN2)C2CCCCC2)CC1 (centres unmarked)	HepaRG <25x Avg Cmax HCS	+ve
[H]/N=C(/N)N[C@H]1[C@H](O)[C@@H](O)[C@H](O[C@@H]2O[C@@H](C)[C@](O)(C=O)[C@H]2O[C@@H]2O[C@@H](CO)[C@H](O)[C@@H](O)[C@@H]2NC)[C@@H](N/C(N)=N\[H])[C@@H]1O [streptomycin, reference compound]	HepaRG <25x Avg Cmax HCS	-ve
Nc1cc(N2CCCCC2)nc(N)[n+]1[O-]	HepaRG <25x Avg Cmax HCS	-ve
CN(C)CCCN1c2ccccc2Sc2ccc(Cl)cc21 [chlorpromazine, reference compound]	HepaRG <25x Avg Cmax HCS	+ve

Request: Using known records, supply HepaRG <25x Avg Cmax HCS for CS(=O)(=O)CCNCc1ccc(-c2ccc3ncnc(Nc4ccc(OCc5cccc(F)c5)c(Cl)c4)c3c2)o1
Result: +ve

Request: Using known records, supply HepaRG <25x Avg Cmax HCS for CN(Cc1cnc2nc(N)nc(N)c2n1)c1ccc(C(=O)N[C@@H](CCC(=O)O)C(=O)O)cc1 [methotrexate, reference compound]
Result: +ve

Request: Using known records, supply HepaRG <25x Avg Cmax HCS for COc1ccccc1Oc1c(NS(=O)(=O)c2ccc(C(C)(C)C)cc2)nc(-c2ncccn2)nc1OCCO
Result: +ve
